study-target: T1, cynomolgus PVRIG on cells (cynomolgus, UniProt A0A2K5WVV8 41-322)
T1 construct: whole, on cells; also called cPVRIG; expi cPVRIG cells
T1 sequence: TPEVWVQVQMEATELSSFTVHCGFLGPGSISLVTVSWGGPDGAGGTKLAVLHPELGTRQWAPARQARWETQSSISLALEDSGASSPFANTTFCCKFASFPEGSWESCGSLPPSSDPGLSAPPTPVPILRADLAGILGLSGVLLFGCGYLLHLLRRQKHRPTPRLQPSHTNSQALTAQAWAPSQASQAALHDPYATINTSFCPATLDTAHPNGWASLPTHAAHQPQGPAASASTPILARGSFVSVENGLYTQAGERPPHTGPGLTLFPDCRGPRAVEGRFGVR
test-protocol: FACS, expi cPVRIG over expi parental cells, 3.3ug/ml
What gMFIr Expi cyno OE/par was measured for each of the following?
Just the number.

Entry CHA.7.516 (antibody, V domains shown) VH: QVQLQQSGPELVRPGVSVKISCKVSGYTFTDYVMHWVKQSHAKSLEWIGIISPYSGNTNYNQNFKGKATMTVDKSSSTAYMALARLTSEDSAIYYCAREGDLPMFAYWGQGTLVTVSA VL: QIVLTQSPTIMSASPGEKVTMTCSASSSVSYIYWYQQNPGSSPRLLIYDTSILASGVPFRFSGSGSGTSYSLTISRMEAEDAATYYCQQWTSYPLTFGSGTKLELK ; gMFIr Expi cyno OE/par = 60

Entry CHA.7.522 (antibody, V domains shown) VH: QVQLQQPGSELVRPGTSVKLSCKASGYTFTSYWVHWVRQRHGQGLEWIGNVYPGSGSTNYDEKFKSKGTLTVDTSSSTAYMHLSSLTSEDSAVYYCTRGVLRFPLDYWGQGTTLTVSS VL: DIVMTQAAPSVPVTPGESVSISCRSSKSLLHSNGNTYLYWFLQRPGQSPHLLIYRMSNLASGVPDRFSGSGSGTAFTLRISRVEAEDVGVYYCMQHLEYPLTFGAGTKLELK ; gMFIr Expi cyno OE/par = 27.2

Entry CHA.7.510 (antibody, V domains shown) VH: QVTLKESGPGILQPSQTLSLTCSFSGFSLNTSGTGVGWIRQPSGKGLEWLTHIWWNDNKFYNTFLKSRLTISKETSNNQVFLKIASVDTADAATYYCARMAYGNLWFVNWGQGTLVAVST VL: DIVLTQSPASLAVSLGQRASISCRASRSVTISGYSYMYWYQQKPGQPPRLLFYLASNLASGVPARFSGSGSGTDFTLNIHPVEEEDAAIYYCQHSRELPYTFGGGTKLEIK ; gMFIr Expi cyno OE/par = 38.2
